# koff annotations
# tgt: T1, Human CD19-his protein (human, UniProt P15391 20-291)
# T1 construct: bought protein; also called recombinant human CD19-His; CD19 full-length protein; not shown: His tag
# T1 sequence (looked up): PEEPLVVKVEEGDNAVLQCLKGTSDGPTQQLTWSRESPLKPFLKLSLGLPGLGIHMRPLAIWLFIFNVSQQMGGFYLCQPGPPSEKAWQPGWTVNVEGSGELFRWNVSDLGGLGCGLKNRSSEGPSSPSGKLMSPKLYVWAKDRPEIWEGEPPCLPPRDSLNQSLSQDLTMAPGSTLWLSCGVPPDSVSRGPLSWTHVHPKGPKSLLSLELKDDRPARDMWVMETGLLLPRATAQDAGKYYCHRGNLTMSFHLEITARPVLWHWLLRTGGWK
# experimental protocol: SPR Biacore, Ab captured on Protein A, CD19-His analyte
measured endpoint: koff

INSERT INTO results (binder, result) VALUES
  ('F3.113.16 (antibody, human IgG1, V domains shown, human-murine chimeric antibody, human IgG1 constant) VH: QVQLQQPGAELVKPGASVKLSCKASGYTFTNYWMQWVKQRPGQGLEWIGEIDPSDSYINYNQKFKGKATLTADTSSSTAYMQLSSLTYEDSAVYYCARPVTVPWYFDVWGTGTTVTVSS VL: EIVLTQSPTTMAASPGEKITITCSATSSISSNYLHWYQQKPGFSPKLLIYRTSNLASGVPARFSGSGSGTSYSLTIGTMEAEDVATYYCQQGSAIPRIFTFGSGTKLEIK', '0.00105 s⁻¹'),
  ('F6.2.9 (antibody, human IgG1, V domains shown, human-murine chimeric antibody, human IgG1 constant) VH: QVQLQQSGAELVKPGASVKISCKASGYAFSSYWMNWVKQRPGKGLEWIGQIYPGDGDTNYNGKFKGKATLTADKSSSTGYMQLSSLTSEDSAVYFCARSRITSVVDWYFDVWGTGTTVTVSS VL: QIVLSQSPAILSASPGEKVTMTCRASSSVSYMHWYQQKPGSSPKPWIYATSNLASGVPARFSGSGSGTSYSLTISRVEAEDAATYYCQQWSSNPPTFGAGTKLELK', '0.0033 s⁻¹');
